Attribution: patent US11535621B2

target: Human CD38 (Homo sapiens (Human))
Entries and their IC50

Human CD38 (Homo sapiens (Human)) data for CC(F)(F)CN[C@H]1CC[C@H](NC(=O)c2nc(-n3ccnc3)nc3ccsc23)CC1 ; its IC50: 10 to 100 nM

Form: item N#Cc1ccc(NC(=O)c2nc(-n3ccnc3)cc3cn[nH]c23)cc1 ; test system Human CD38 (Homo sapiens (Human)); IC50: < 10 nM

====

Reported IC50 values for the following compounds.
target: Human CD38 (Homo sapiens (Human), UniProt P28907); assay: CD38 enzyme assay; format: biochemical; details: 2 nM CD38, NAD+ substrate, absorbance at 405 nm
Sequence (P28907 whole entry): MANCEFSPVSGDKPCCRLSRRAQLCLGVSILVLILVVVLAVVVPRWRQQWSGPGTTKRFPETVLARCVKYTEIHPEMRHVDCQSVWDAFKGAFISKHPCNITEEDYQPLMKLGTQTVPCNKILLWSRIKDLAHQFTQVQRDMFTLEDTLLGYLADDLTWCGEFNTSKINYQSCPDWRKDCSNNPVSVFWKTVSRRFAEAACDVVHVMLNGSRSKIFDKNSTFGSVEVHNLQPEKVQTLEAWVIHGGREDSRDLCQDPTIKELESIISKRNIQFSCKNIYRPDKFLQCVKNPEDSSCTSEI

Consider O=C(NCc1c(F)cccc1C(F)(F)F)c1cc(-n2ccnc2)nc2cc[nH]c12 [Example 44] . Its measured IC50 is 10 to 100 nM

Form field IC50, entry CC(C)[C@H](O)CO[C@H]1CC[C@H](NC(=O)c2nc(-n3ccnc3)nc3cc[nH]c23)CC1 (single isomer, unassigned) [Example 119b] : 10 to 100 nM

Per the records, this compound ( O=C(N[C@H]1CC[C@H](C(F)(F)F)CC1)c1nc(-n2ccnc2)nc2cc[nH]c12 [Example 39b] ) has IC50 equal to < 10 nM

Now let's try a different one.
Given item COc1ccc(NC(=O)c2nc(-n3ccnc3)nc3cc[nH]c23)cn1 [Example 85] , the value recorded as its IC50 is < 10 nM

====

Heads up, these compounds all have IC50 values measured for Human CD38 (Homo sapiens (Human), UniProt P28907).

Recorded results for 5 compounds are shown here.
Looking up CC(C)(O)[C@H]1CC[C@H](NC(=O)c2nc(-n3ccnc3)cc3ccsc23)CC1 [Example 260] , I found its IC50 recorded as < 10 nM

Noted for O=C(N[C@H]1CC[C@H](OCCC(F)(F)F)CC1)c1nc(-n2ccnc2)cc2cn[nH]c12 [Example 249] : its IC50 reads < 10 nM

Memo: O=C(N[C@H]1CC[C@@H](C(F)(F)F)CC1)c1nc(-n2ccnc2)nc2ccsc12 [Example 122] , reported IC50: < 10 nM

Noted for O=C(N[C@H]1CC[C@H](NCCC(F)(F)F)CC1)c1nc(-n2ccnc2)cc2cn[nH]c12 [Example 189] : its IC50 reads 10 to 100 nM

// IC50 value for O=C(Nc1ccc(OCCN2CCCC2)nc1)c1nc(-n2ccnc2)cc2cn[nH]c12 [Example 203] : 10 to 100 nM

Next:
// sample CC1(C#N)CN([C@H]2CC[C@@H](NC(=O)c3nc(-n4ccnc4)cc4cn[nH]c34)CC2)C1 [Example 259] , its IC50 was 100 to 1000 nM

For this compound ( O=C(NC1CCCCCC1)c1nc(-n2ccnc2)nc2cc[nH]c12 [Example 92] ), measured IC50 is < 10 nM

The measured IC50 associated with CN(CC(F)(F)F)[C@H]1CC[C@@H](NC(=O)c2nc(-n3ccnc3)nc3cc[nH]c23)CC1 [Example 113] reads 10 to 100 nM

====

What follows is a collection of IC50 values obtained with Human CD38 (Homo sapiens (Human)).

Kindly note the recorded IC50 for CN(C)CCOc1ccc(NC(=O)c2nc(-n3ccnc3)cc3cn[nH]c23)cn1 , which is 10 to 100 nM

New cases:
Briefly, IC50 measured for C[C@@H](O)[C@H]1CC[C@H](NC(=O)c2nc(-n3ccnc3)nc3ccsc23)CC1 (single isomer, unassigned) [Example 267a] : < 10 nM

So for CC1(F)CN([C@H]2CC[C@H](NC(=O)c3nc(-n4ccnc4)nc4cn[nH]c34)CC2)C1 , the logged IC50 turned out to be 10 to 100 nM

Value of IC50 reported for the compound COCCN1CCC(NC(=O)c2nc(-n3ccnc3)nc3cc[nH]c23)CC1 is 100 to 1000 nM

====

Please consider the recorded IC50 for Human CD38 (Homo sapiens (Human), UniProt P28907) in what follows.

These solved cases illustrate the format of a correct answer.
So for O=C(N[C@@H]1CCCOC1)c1nc(-n2ccnc2)nc2cc[nH]c12 (single isomer, unassigned) [Example 28b] , the logged IC50 turned out to be < 10 nM

response.value for COCCO[C@H]1CC[C@H](NC(=O)c2cc(-c3cncs3)cc3nc(C)[nH]c23)CC1 (field: IC50) = 100 to 1000 nM

Reported IC50 ( O=C(N[C@H]1CC[C@@H](C(F)(F)F)CC1)c1nc(-n2ccnc2)nc2cc[nH]c12 [Example 39a] ) = < 10 nM

Here's the next entry for you.
Query O=C(N[C@H]1CC[C@H](NCC(F)(F)F)CC1)c1nc(-n2ccnc2)nc2cn[nH]c12 yields IC50 of 10 to 100 nM

====

molecular target: Human CD38 (Homo sapiens (Human))
pIC50: −log10 of the molar value.
quantity.name: pIC50

Guide cases for pIC50, answers given:
Assay Human CD38 (Homo sapiens (Human)), sample O=C(N[C@H]1CC[C@H](C(F)(F)F)CC1)c1nc(-n2ccnc2)nc2cn[nH]c12 , pIC50 read: 7.00 to 8.00

Bench note, Human CD38 (Homo sapiens (Human)): CC(C)(O)[C@H]1C[C@H](NC(=O)c2nc(-n3ccnc3)cc3cn[nH]c23)C1 , pIC50 reads 7.00 to 8.00

Tested system Human CD38 (Homo sapiens (Human)); pIC50 recorded for CC(C)(N[C@H]1CC[C@@H](NC(=O)c2nc(-n3ccnc3)nc3cn[nH]c23)CC1)C(F)(F)F was 6.00 to 7.00

New cases:
Bench note, Human CD38 (Homo sapiens (Human)): entry Cn1cc(NC(=O)c2nc(-n3ccnc3)nc3cc[nH]c23)cn1 , its pIC50 = > 8.00

The compound COCCO[C@H]1CC[C@H](NC(=O)c2nc(-n3ccnc3)nc3cn[nH]c23)CC1 , when measured on Human CD38 (Homo sapiens (Human)), yielded pIC50 of 7.00 to 8.00

Entry COCCO[C@H]1CC[C@H](NC(=O)c2cc(-n3ccnc3)cc3nc(C)[nH]c23)CC1 : pIC50 on Human CD38 (Homo sapiens (Human)) = 6.00 to 7.00

Log: Human CD38 (Homo sapiens (Human)), compound COCCO[C@H]1CC[C@H](NC(=O)c2nc(-n3ccnc3)cc3ccsc23)CC1 , pIC50 = 7.00 to 8.00

Measured pIC50 for this entry COCCO[C@H]1CC[C@H](NC(=O)c2nc(-n3ccnc3)cc3nc[nH]c23)CC1 on Human CD38 (Homo sapiens (Human)): 7.00 to 8.00

====

A short record of IC50 observed with UniProt:P28907 follows.

Record CC(C)[C@](C)(O)COC1CCC(NC(=O)c2nc(-n3ccnc3)nc3cc[nH]c23)CC1 (stereo partly shown) [Example 126b] . Reported IC50: 10 to 100 nM

Sample CC(C)[C@@](C)(O)CO[C@H]1CC[C@H](NC(=O)c2nc(-n3ccnc3)nc3cc[nH]c23)CC1 (single isomer, unassigned) [Example 126a] ; IC50 observed: 10 to 100 nM

Record summary for O=C(Nc1ccc(N2CCNCC2)nc1)c1nc(-n2ccnc2)cc2cn[nH]c12 [Example 224] : reported IC50 = < 10 nM

Others:
For record COCCO[C@H]1CC[C@H](NC(=O)c2nc(-n3ccnc3)cc3cn[nH]c23)CC1 [Example 16] the listed IC50 is 10 to 100 nM

====

pIC50: −log10 of the molar value.
Observed pIC50 for Human CD38 (Homo sapiens (Human), UniProt P28907), reported per entry below.

So the reported pIC50 for Cc1nc2cc(-n3ccnc3)cc(C(=O)NCc3c(F)cccc3C(F)(F)F)c2[nH]1 , on Human CD38 (Homo sapiens (Human), UniProt P28907), turned out to be 6.00 to 7.00

COCCO[C@H]1CC[C@@H](NC(=O)c2nc(-n3ccnc3)nc3cc[nH]c23)CC1 tested on Human CD38 (Homo sapiens (Human), UniProt P28907) gave pIC50: 7.00 to 8.00

# COCCO[C@@H]1CCC[C@H](NC(=O)c2nc(-n3ccnc3)nc3cc[nH]c23)C1 [Example 124b] with Human CD38 (Homo sapiens (Human), UniProt P28907): pIC50 is 7.00 to 8.00

The measured pIC50 that CN(C)CCOCCO[C@H]1CC[C@H](NC(=O)c2nc(-n3ccnc3)nc3cc[nH]c23)CC1 showed for Human CD38 (Homo sapiens (Human), UniProt P28907) is 7.00 to 8.00

Case CN(CC(F)(F)F)[C@H]1CC[C@H](NC(=O)c2nc(-n3ccnc3)nc3cc[nH]c23)CC1 , Human CD38 (Homo sapiens (Human), UniProt P28907), pIC50 recorded as 7.00 to 8.00

***
Entry CC(C)(O)[C@H]1CC[C@H](NC(=O)c2nc(-n3ccnc3)nc3cn[nH]c23)CC1 , Human CD38 (Homo sapiens (Human), UniProt P28907) data, pIC50 value: > 8.00

Noted pIC50 for O=C(N[C@H]1CC[C@H](C(F)(F)F)CC1)c1nc(-n2ccnc2)nc2nc[nH]c12 , tested on Human CD38 (Homo sapiens (Human), UniProt P28907): 7.00 to 8.00

Lab note: molecule CC(=O)NC[C@H]1CC[C@H](NC(=O)c2nc(-n3ccnc3)cc3cn[nH]c23)CC1 tested on Human CD38 (Homo sapiens (Human), UniProt P28907); recorded pIC50 was 7.00 to 8.00

COCCO[C@H]1CC[C@H](NC(=O)c2nc(-c3cncs3)nc3cc[nH]c23)CC1 tested on Human CD38 (Homo sapiens (Human), UniProt P28907) gave pIC50: 7.00 to 8.00

Item COCCO[C@H]1CC[C@H](NC(=O)c2cc(-n3ccnc3)c(F)c3cc[nH]c23)CC1 was tested on Human CD38 (Homo sapiens (Human), UniProt P28907); the reported pIC50 is 6.00 to 7.00

Item COCCO[C@H]1CC[C@H](NC(=O)c2nc(-n3cnc(C)c3)nc3cc[nH]c23)CC1 ; assay system Human CD38 (Homo sapiens (Human), UniProt P28907); pIC50 reported as < 6.00

Entry O=C(NC1CCN(CCC(F)(F)F)C1)c1nc(-n2ccnc2)nc2cc[nH]c12 (centres unmarked) under Human CD38 (Homo sapiens (Human), UniProt P28907) had pIC50 of 7.00 to 8.00

Item Cn1ccc(NC(=O)c2nc(-n3ccnc3)nc3cc[nH]c23)n1 ; assay system Human CD38 (Homo sapiens (Human), UniProt P28907); pIC50 reported as > 8.00

pIC50 for Human CD38 (Homo sapiens (Human), UniProt P28907) with input COCCOc1ccc(NC(=O)c2nc(-n3ccnc3)nc3cc[nH]c23)cc1F equals > 8.00
